tested on: TK-10 renal; experiment: NCI-60 one-dose screen, 48 h (100 = growth as untreated, 0 = no growth, -100 = all killed); conditions: 10 µM
Compounds without any hit were thinned out: in the full panel of roughly 83,000, 20% have a hit.
Please use label 1 for growth under 40% and label 0 for everything else, ties included.

Request: Check if growth falls below 40% for COc1cc(CNc2ccccc2C(=O)N2CCN(C(=O)c3cc(-c4cc(OC)c(OC)c(OC)c4)n4nc(-c5ccccc5)cc4n3)CC2)cc(OC)c1OC .
Result: label 0

Request: Can you check COc1cc(-c2cc(C(=O)N3CCN(C(=O)c4ccccc4NCc4ccco4)CC3)nc3cc(-c4ccccc4)nn23)cc(OC)c1OC next?
Result: label 1

Request: Can you check O=C1/C(=C/c2ccc([N+](=O)[O-])s2)Oc2ccccc21 next?
Result: label 1

Request: Can you check O=C(c1cccs1)c1ccccc1Cc1ccccc1 next?
Result: label 0

* * *

system: OVCAR-8 ovarian; assay: NCI-60 one-dose screen, 48 h; details: 10 µM
This is part of a sample that, as a whole, favours compounds with a hit. Of some 83,000 tested, about 20% had one in any assay. Calls of active or inactive are those of the source. Rule for the calls: active = growth percent below 10; inactive = the rest.
Answer with one of the outcomes given here: Yes for active, No for inactive

Request: Recorded test call requested for Cc1nc2ccccc2c(N)c1-c1cc(C)c2c(C)nc3ccccc3c2n1
Result: Yes

Request: Can you check c1ccc(CSc2nnc3c4c5c(sc4nc(-c4cccnc4)n23)CCCCCC5)cc1 next?
Result: No

Request: Can you check Nc1cc2c(cc1Cl)-c1ccc([N+](=O)[O-])cc1/C2=N\O next?
Result: No

Request: Can you check CC12O[C@H](C[C@@H](OC(=O)c3ccccc3)[C@H]1O)n1c3ccccc3c3c4c(c5c6ccccc6n2c5c31)C(=O)NC4=O next?
Result: No

Request: Can you check O=C(N/N=C\c1cc(Cl)ccc1[N+](=O)[O-])c1ccco1 next?
Result: No

Request: Can you check COc1ccc(-c2nc3sc(C4CC4)nn3c2/C=C2/C(=O)Nc3ccc(OC)cc32)cc1 next?
Result: No

Request: Can you check CC(C)(C#N)Nc1ccccc1 next?
Result: No

Request: Can you check Cc1ccc(NC(=O)Nc2nc3ccccc3s2)cc1NC(=O)Nc1nc2ccccc2s1 next?
Result: No

Request: Can you check COc1ccc(-c2cc(-c3cccc(NS(C)(=O)=O)c3)nc(N)c2C#N)cc1 next?
Result: No

Request: Can you check CCN(CCCCCCN1CC(=O)N(CCCCCCN(CC)Cc2ccccc2OC)CC1=O)Cc1ccccc1OC next?
Result: No

Request: Can you check COc1cc2cc3c(nc2cc1OC)CCN3Cc1ccc(NC(=O)Nc2ccc(F)cc2F)cc1 next?
Result: No

Request: Can you check CCCCCCN1C(=O)C2=C(c3ccc(Cl)cc3)Nc3c(c(C)nn3-c3ccccc3)C2c2ccccc21 (stereo unspecified) next?
Result: No

Request: Can you check COc1cc(/C=C2\CCCC3=C2N=C2SC=NN2C3c2cc(OC)c(OC)c(OC)c2)cc(OC)c1OC (stereo unspecified) next?
Result: Yes

Request: Can you check ClCC#CCSc1ncnc2c1ncn2CC#CCCl next?
Result: No

Request: Can you check CCCCCCc1cc(N=Nc2ccc(S(=O)(=O)Nc3cc(C)nc(C)n3)cc2)c(O)cc1O next?
Result: No

Request: Can you check COc1ccccc1/C=C/C(=O)c1ccccc1 next?
Result: No

Request: Can you check O=[N+]([O-])c1cccc(-c2ncc(-c3ccc(Cl)cc3Cl)[nH]2)c1 next?
Result: No

Request: Can you check Oc1[nH]c2cc(Cl)ccc2c1/C=c1/ccc2c(c1)N=C(c1cc(F)cc(F)c1)N=2 next?
Result: No

Request: Can you check CN1CCC(CNc2cc(C3(C(=O)Nc4cc(C(=O)Nc5ccc(Cl)c(C(F)(F)F)c5)ccc4F)CC3)ncn2)CC1 next?
Result: No

Request: Can you check O=c1[nH]c2ccc(Cl)cc2c2ccccc12 next?
Result: No

Request: Can you check COc1cc(NC(=O)CSc2nc3ccccc3c(=O)n2CCc2ccccc2)cc(OC)c1OC next?
Result: No

Request: Can you check CC(=O)[C@H]1CC[C@H]2[C@@H]3CCC4=CC(=O)C=C[C@]4(C)[C@H]3CC[C@]12C next?
Result: No

Request: Can you check CCCCOc1ccc(NC(=O)Nc2nnc(C)s2)cc1 next?
Result: No

Request: Can you check N=C(N)c1ccc(-c2ccc(-c3cccs3)o2)cc1 next?
Result: No

Request: Can you check COc1cccc(C(=O)Nc2ccc(CN3CCc4nc5cc(OC)c(OC)cc5cc43)cc2)c1 next?
Result: No

Request: Can you check Cc1ccc2oc3nc(C)c(C(=O)NCc4ccccc4)cc3c(=O)c2c1 next?
Result: No

Request: Can you check CC/C(=C(/c1ccc(OCCN(C)C)cc1)c1ccc(OC(=O)CCCCC(=O)c2c(C)[nH]c(/C=C3\N=C(c4ccc[nH]4)C=C3OC)c2C)cc1)c1ccccc1 next?
Result: No

Request: Can you check CCCCCCN1CCN(Cc2ccc(N(CC)CC)cc2)C(=O)C1=O next?
Result: No

Request: Can you check FC(F)(F)c1ccc2nc(-c3nc(-c4ccccc4)n4ccccc34)[nH]c2c1 next?
Result: No

Request: Can you check Fc1ccc(-c2nnc(-c3c(-c4ccc(F)cc4)nc4ccccn34)o2)cc1 next?
Result: No

Request: Can you check COc1cc2c(cc1OC)N(CCO)C1=C(C(=O)OC1)C2c1ccc(Cl)c(Cl)c1 (stereo unspecified) next?
Result: No

Request: Can you check Cc1ccc(CC#N)cc1C next?
Result: No

Request: Can you check CC(C)(C)c1ccc(N2CSC(=S)N(c3ccc(C(C)(C)C)cc3)C2)cc1 next?
Result: No

Request: Can you check Cc1cc2ccccc2nc1-c1ccccc1F next?
Result: No

Request: Can you check COc1ccc(/C=C2/CN(C(=O)c3ccccc3F)C/C(=C\c3ccc(OC)cc3)C2=O)cc1 next?
Result: No

Request: Can you check CC(=O)OCc1cc(-c2nc3ccccc3[nH]c2=O)nn1-c1ccc(Cl)cc1 next?
Result: No

Request: Can you check COc1ccc(-c2nn(-c3cccc(NC(=O)Nc4cccc(C(F)(F)F)c4)c3)cc2-c2ccncc2)cc1Cl next?
Result: Yes

Request: Can you check CC1=C(N2CCOCC2)C(N2CCOCC2)=C(C)C(=O)C1=O next?
Result: No

Request: Can you check CCc1ccc2c(c1)N(CCO)C1=C(C(=O)OC1)C2c1cc(OC)c(OC)c(OC)c1 (stereo unspecified) next?
Result: Yes

Request: Can you check COc1cc(-c2cc(/C=C/C(=O)c3ccc(N)cc3)[nH]n2)cc(OC)c1OC next?
Result: Yes

Request: Can you check ClC(Cl)(Cl)c1nc2nccnc2[nH]1 next?
Result: No

* * *

tested on: ACHN renal; experiment: NCI-60 one-dose screen, 48 h (100 = growth as untreated, 0 = no growth, -100 = all killed); conditions: 10 µM
About 83,000 compounds went through this panel and 20% of them were active in at least one assay; those are over-represented in the sample as a whole.
Is growth at least 30%? Then label 1. If not, label 0.

Request: Record COc1ccc(-c2nn(-c3cccc(NC(=O)Nc4ccc(Cl)c(C(F)(F)F)c4)c3)cc2-c2ccncc2)cc1Cl ; criterion: growth no lower than 30%. Met?
Result: label 0

Request: Can you check COc1cc(/C=C2\CCCC3=C2N=C2SC=NN2C3c2cc(OC)c(OC)c(OC)c2)cc(OC)c1OC (stereo unspecified) next?
Result: label 0

Request: Can you check Cc1cc(C)c(NC(=O)c2sc3nc4c(cc3c2N)C(=O)CCC4)c(C)c1 next?
Result: label 1

Request: Can you check COc1ccc(OC)c(/C=C/c2nc(SCc3ccccc3)n(-c3ccc(Cl)cc3)n2)c1 next?
Result: label 1

Request: Can you check N#CCCN1C/C(=C/c2ccc(Cl)cc2)C(=O)/C(=C/c2ccc(Cl)cc2)C1 next?
Result: label 0

Request: Can you check COc1cc(C)ccc1C(=O)c1ccc(C)cc1OC next?
Result: label 1

Request: Can you check COc1ccc(Nc2nc3ccc(NC(=O)NC4CCCCC4)cc3[nH]c2=O)cc1 next?
Result: label 1

Request: Can you check CCN(CCCCCCCCCCN1CC(=O)N(CCCCCCCCCCN(CC)Cc2ccccc2OC)CC1=O)Cc1ccccc1OC next?
Result: label 0

Request: Can you check O=C1/C(=C\c2ccccc2)CN(C(=O)c2ccccc2F)C/C1=C\c1ccccc1 next?
Result: label 0

Request: Can you check CCOC(=O)C(CSC(c1ccccc1)(c1ccccc1)c1ccccc1)NC(=O)C(CSC(c1ccccc1)(c1ccccc1)c1ccccc1)NC(c1ccccc1)(c1ccccc1)c1ccccc1 (stereo unspecified) next?
Result: label 1

Request: Can you check COc1cc(Nc2ccnc(NCCCNc3ccnc4cc(Cl)ccc34)n2)cc(OC)c1 next?
Result: label 0

Request: Can you check CN(C)c1ccc(-c2cc(-c3cccc(NS(C)(=O)=O)c3)nc(N)c2C#N)cc1 next?
Result: label 0

Request: Can you check COc1ccc2c(c1)C(=O)c1c-2c(OCCN2CCCCC2)nc2ccc(OC)cc12 next?
Result: label 0

Request: Can you check O=C(Cc1csc2nc(-c3ccc(Cl)cc3)cn12)N/N=C/c1ccccc1O next?
Result: label 0

Request: Can you check Cc1cc(C)c(CCc2cc(C)c(C)cc2C)cc1C next?
Result: label 1

Request: Can you check O=C(CCCCC[P+](c1ccccc1)(c1ccccc1)c1ccccc1)NC(COC(=O)C(Cl)Cl)(COC(=O)C(Cl)Cl)COC(=O)C(Cl)Cl next?
Result: label 1

Request: Can you check CC(C)(C)c1cc(Br)cc(C(C)(C)C)c1O next?
Result: label 1

Request: Can you check O=C(Nc1cccc(Br)c1)c1cc(=O)[nH]c2ccccc12 next?
Result: label 1

Request: Can you check COc1cc(/C=C\c2cc(OC)c(OC)c(OC)c2)cc(NS(=O)(=O)c2ccc(Cl)cc2)c1OC next?
Result: label 1

Request: Can you check CC(C)(Cl)CCC1=C(Cl)C(=O)c2ccccc2C1=O next?
Result: label 0

Request: Can you check O=C(Nc1nc2ccc(F)cc2s1)c1cc(-c2ccc(F)cc2)n2nc(-c3ccccc3)cc2n1 next?
Result: label 1

Request: Can you check N=C(N)c1ccc(-c2ccc(-c3cccs3)s2)cc1 next?
Result: label 1

Request: Can you check CSc1nc(=O)n(Cc2ccc(F)cc2)c(=O)n1Cc1ccc(C)cc1 next?
Result: label 1

Request: Can you check CCN(CCCCCCN1CC(=O)N(CCCCCCN(CC)Cc2ccccc2OC)CC1=O)Cc1ccccc1OC next?
Result: label 1

Request: Can you check COc1ccc2c(c1)C(=O)c1c-2c(=O)n(CCCN(C)C)c2cc(OC)c(OC)cc12 next?
Result: label 1

Request: Can you check CCCN(CCC)CCC(O)c1cc2c(c3ccccc13)CCCC2 (stereo unspecified) next?
Result: label 1

Request: Can you check Clc1ccc(Nc2ccnc(NCCCNc3ccnc4cc(Cl)ccc34)n2)cc1 next?
Result: label 0

Request: Can you check CCCCOC(=O)Oc1ccc(C(=O)Oc2ccc(OCC)cc2)cc1 next?
Result: label 1

Request: Can you check CCN(CC)CCSCCCNc1c2ccc(Cl)cc2nc2ccc(OC)cc12 next?
Result: label 0

Request: Can you check O=C(CC(NC(=O)OCc1ccccc1)C(=O)OCc1ccccc1)OCc1ccccc1 (stereo unspecified) next?
Result: label 1

Request: Can you check CCCCC(CCCCCC(CCCC)NCc1ccc2c(c1)OCO2)NCc1ccc2c(c1)OCO2 (stereo unspecified) next?
Result: label 0

Request: Can you check O=C(CC(C(=O)c1ccccc1)N1CCOCC1)c1ccccc1 (stereo unspecified) next?
Result: label 1

Request: Can you check CCN(CC)CCCOCCCNc1cc(OC)cc2cccnc12 next?
Result: label 1

Request: Can you check N#Cc1c(C#N)c(SSc2c(C#N)c(C#N)c(N)n2-c2ccccc2)n(-c2ccccc2)c1N next?
Result: label 1

Request: Can you check COc1cccc(C2C3=C(COC3=O)N(CCO)c3cc(OC)ccc32)c1 (stereo unspecified) next?
Result: label 1

Request: Can you check Nc1nc(N)c2c(ccc3nccc32)[nH]1 next?
Result: label 1

Request: Can you check COc1cc(CNCCCCCCN2C(=O)c3cccc4cccc(c34)C2=O)ccc1O next?
Result: label 1

Request: Can you check COc1ccc(-c2cc(/C=C3\C(=O)Nc4ccc(Cl)cc43)[nH]n2)cc1OC next?
Result: label 1

Request: Can you check O=c1c2ccccc2nc(SCCN2CCCCC2)n1CCc1ccccc1 next?
Result: label 1

Request: Can you check COc1ccc(Cl)cc1C(=O)Nc1nc2ccc(Cl)cc2s1 next?
Result: label 1

Request: Can you check CNc1ncc(-c2ccc(C(F)(F)F)cc2)c(NC2CCCCCC2)n1 next?
Result: label 1
